// provenance: ChEMBL document CHEMBL1811873

Item-by-item account of Emax
Target: Peroxisome proliferator-activated receptor gamma (Homo sapiens) (UniProt P37231)
Sequence (whole entry): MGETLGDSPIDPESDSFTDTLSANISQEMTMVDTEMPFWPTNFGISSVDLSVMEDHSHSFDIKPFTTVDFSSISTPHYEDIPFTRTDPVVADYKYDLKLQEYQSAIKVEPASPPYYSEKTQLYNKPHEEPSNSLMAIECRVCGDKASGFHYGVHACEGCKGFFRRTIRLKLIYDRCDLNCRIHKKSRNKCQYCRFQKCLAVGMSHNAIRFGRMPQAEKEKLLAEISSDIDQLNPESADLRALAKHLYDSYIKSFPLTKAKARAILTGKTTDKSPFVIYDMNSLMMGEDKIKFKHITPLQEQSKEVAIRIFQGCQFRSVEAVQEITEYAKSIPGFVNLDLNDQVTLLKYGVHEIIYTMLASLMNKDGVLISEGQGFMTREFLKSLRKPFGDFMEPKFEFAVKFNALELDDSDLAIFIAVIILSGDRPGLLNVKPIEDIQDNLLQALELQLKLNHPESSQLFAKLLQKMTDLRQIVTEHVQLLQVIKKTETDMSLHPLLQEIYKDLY
Experiment: Agonist activity at PPARgamma expressed in HEK293 after 8 hrs by luciferase reporter gene assay relative to ciglitazone
Type: functional, cell-based
Number in %, nothing else.

> print(dat)
                                   compound  quantity.measured  unit.name  reading
1  CC[C@@H](Cc1ccc(CCc2ccc(N3C(=O)c4ccccc4C3=O)cc2OC)cc1)C(=O)O               Emax          %      102
2  O=C(O)CCCOc1ccc(CCc2ccc(N3C(=O)c4ccccc4C3=O)cc2)cc1               Emax          %       31

I'd like to know its Emax. The compound in question is O=C(O)c1ccc(CCc2ccc(N3C(=O)c4ccccc4C3=O)cc2)cc1
2

Next compound: CCC(Cc1ccc(CCc2ccc(N3C(=O)c4ccccc4C3=O)cc2)cc1)C(=O)O (stereo not given)
42

Item: CCCOc1cc(N2C(=O)c3ccccc3C2=O)ccc1CCc1ccc(C[C@H](CC)C(=O)O)cc1
36

Field entry: CCOc1cc(N2C(=O)c3ccccc3C2=O)ccc1CCc1ccc(C[C@@H](CC)C(=O)O)cc1
23

Proceed to CCOc1cc(N2C(=O)c3ccccc3C2=O)ccc1CCc1ccc(C[C@H](CC)C(=O)O)cc1
62

Same again, this time with CCOc1cc(N2C(=O)c3ccccc3C2=O)ccc1CCc1ccc(CC(CC)C(=O)O)cc1 (racemic)
49

Then what about the compound O=C(O)CCc1ccc(CCc2ccc(N3C(=O)c4ccccc4C3=O)cc2)cc1 ?
7

Query CCCCOc1cc(N2C(=O)c3ccccc3C2=O)ccc1CCc1ccc(CC(CC)C(=O)O)cc1 (stereo not given) next
36

###

target: Peroxisome proliferator-activated receptor delta (Homo sapiens) (UniProt Q03181); test: Agonist activity at human PPARdelta expressed in HEK293 after 8 hrs by luciferase reporter gene assay relative to GW501516; type: functional, cell-based
quantity.measured: Emax (%)
Numbers only here, please. The scale is %.

For CCOc1cc(N2C(=O)c3ccccc3C2=O)ccc1CCc1ccc(C[C@H](CC)C(=O)O)cc1 , what is its reported Emax?
29

###

Target: Peroxisome proliferator-activated receptor alpha (Homo sapiens)
Sequence (Q07869 whole entry): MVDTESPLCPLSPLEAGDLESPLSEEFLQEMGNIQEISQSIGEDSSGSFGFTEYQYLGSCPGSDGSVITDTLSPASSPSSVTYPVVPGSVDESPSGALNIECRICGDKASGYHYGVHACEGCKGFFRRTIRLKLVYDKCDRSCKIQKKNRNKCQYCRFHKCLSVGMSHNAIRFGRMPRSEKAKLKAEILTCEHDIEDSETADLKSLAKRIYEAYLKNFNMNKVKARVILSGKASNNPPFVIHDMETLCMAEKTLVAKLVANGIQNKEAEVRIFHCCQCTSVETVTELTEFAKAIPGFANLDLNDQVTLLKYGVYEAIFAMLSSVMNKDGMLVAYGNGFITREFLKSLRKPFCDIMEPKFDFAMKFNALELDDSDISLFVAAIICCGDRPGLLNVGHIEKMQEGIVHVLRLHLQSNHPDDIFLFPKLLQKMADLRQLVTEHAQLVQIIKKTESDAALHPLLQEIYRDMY
Assay: Agonist activity at human PPARalpha expressed in HEK293 after 8 hrs by luciferase reporter gene assay
Form field: EC50 (one value per entry).
# output: bare number, implied unit µM

Observed EC50 on Peroxisome proliferator-activated receptor alpha (Homo sapiens) for CC[C@H](Cc1ccc(CCc2ccc(N3C(=O)c4ccccc4C3=O)cc2OC)cc1)C(=O)O , please.
4.5

Same thing, different compound: CCCCOc1cc(N2C(=O)c3ccccc3C2=O)ccc1CCc1ccc(CC(CC)C(=O)O)cc1 (centres undefined)
1.8

// same read-out, input: O=C(O)c1ccc(CCc2ccc(N3C(=O)c4ccccc4C3=O)cc2)cc1
33

###

Target: Peroxisome proliferator-activated receptor alpha (Homo sapiens, UniProt Q07869)
Sequence (Q07869 whole entry): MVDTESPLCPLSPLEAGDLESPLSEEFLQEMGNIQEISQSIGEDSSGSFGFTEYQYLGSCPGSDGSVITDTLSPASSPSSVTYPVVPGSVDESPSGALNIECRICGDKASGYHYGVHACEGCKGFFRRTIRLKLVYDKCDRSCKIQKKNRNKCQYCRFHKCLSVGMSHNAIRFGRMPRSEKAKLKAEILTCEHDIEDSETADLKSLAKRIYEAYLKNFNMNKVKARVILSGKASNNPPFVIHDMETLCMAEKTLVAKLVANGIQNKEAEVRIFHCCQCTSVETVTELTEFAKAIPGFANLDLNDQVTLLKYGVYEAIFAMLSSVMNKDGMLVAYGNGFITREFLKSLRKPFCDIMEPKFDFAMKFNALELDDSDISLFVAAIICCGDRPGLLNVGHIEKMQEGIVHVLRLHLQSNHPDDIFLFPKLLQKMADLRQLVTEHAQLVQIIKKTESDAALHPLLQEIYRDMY
Assay: Agonist activity at human PPARalpha expressed in HEK293 after 8 hrs by luciferase reporter gene assay
quantity.measured: log10 of EC50 (log10 of the value in µM)
Transform log10 | Measure EC50 | Unit µM

> print(dat)
                                   compound  quantity.measured  reading
1  CCOc1cc(N2C(=O)c3ccccc3C2=O)ccc1CCc1ccc(C[C@@H](CC)C(=O)O)cc1      log10 of EC50     0.04
2  O=C(O)COc1ccc(CCc2ccc(N3C(=O)c4ccccc4C3=O)cc2)cc1      log10 of EC50     1.46
3  CCC(Cc1ccc(CCc2ccc(N3C(=O)c4ccccc4C3=O)cc2O)cc1)C(=O)O (stereo unspecified)      log10 of EC50     1.15
4  CCC(Cc1ccc(CCc2ccc(N3C(=O)c4ccccc4C3=O)cc2)cc1)C(=O)O (stereo unspecified)      log10 of EC50     0.82
5  CC[C@@H](Cc1ccc(CCc2ccc(N3C(=O)c4ccccc4C3=O)cc2OC)cc1)C(=O)O      log10 of EC50     0.95

Could you now consider this next compound?
Query (compound): CCCOc1cc(N2C(=O)c3ccccc3C2=O)ccc1CCc1ccc(C[C@@H](CC)C(=O)O)cc1 ; field requested: log10 of EC50
0.40

###

target: Peroxisome proliferator-activated receptor gamma (Homo sapiens); assay: Agonist activity at PPARgamma expressed in HEK293 after 8 hrs by luciferase reporter gene assay
Consider the following compounds and their measured EC50 readings.
// note: answer is a bare numeric in µM

Would you please look over these solved cases?
> print(dat)
                                   compound  quantity.measured  reading
1  CCCOc1cc(N2C(=O)c3ccccc3C2=O)ccc1CCc1ccc(CC(CC)C(=O)O)cc1 (racemic)               EC50      6.9
2  CCOc1cc(N2C(=O)c3ccccc3C2=O)ccc1CCc1ccc(CC(CC)C(=O)O)cc1 (racemic)               EC50      9.3
3  CCC(Cc1ccc(CCc2ccc(N3C(=O)c4ccccc4C3=O)cc2)cc1)C(=O)O (centres undefined)               EC50       11

Next item in the queue.
Give the measured EC50 of CCC(Cc1ccc(CCc2ccc(N3C(=O)c4ccccc4C3=O)cc2OC)cc1)C(=O)O (racemic) .
8.5

###

Target: Peroxisome proliferator-activated receptor delta (Homo sapiens, UniProt Q03181)
Sequence (Q03181 whole entry): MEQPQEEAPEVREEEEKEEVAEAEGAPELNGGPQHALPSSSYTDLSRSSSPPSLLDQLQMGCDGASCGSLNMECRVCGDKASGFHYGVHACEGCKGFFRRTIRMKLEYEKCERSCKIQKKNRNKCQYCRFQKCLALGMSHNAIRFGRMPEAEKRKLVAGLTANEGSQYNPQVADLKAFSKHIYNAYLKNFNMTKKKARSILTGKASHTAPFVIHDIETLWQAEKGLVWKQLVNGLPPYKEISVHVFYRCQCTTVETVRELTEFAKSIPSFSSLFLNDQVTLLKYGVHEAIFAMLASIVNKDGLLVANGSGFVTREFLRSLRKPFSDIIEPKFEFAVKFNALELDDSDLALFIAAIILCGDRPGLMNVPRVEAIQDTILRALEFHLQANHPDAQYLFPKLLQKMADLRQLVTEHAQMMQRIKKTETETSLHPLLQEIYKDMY
Assay: Agonist activity at PPARdelta expressed in HEK293 after 8 hrs by luciferase reporter gene assay
quantity.measured: pEC50
By convention, pEC50 is the negative base-10 log of a molar concentration.

Before answering, review these 2 worked examples.
> print(dat)
                                   compound  quantity.measured  reading
1  CCC(Cc1ccc(CCc2ccc(N3C(=O)c4ccccc4C3=O)cc2O)cc1)C(=O)O (stereo not drawn)              pEC50     4.60
2  CCOc1cc(N2C(=O)c3ccccc3C2=O)ccc1CCc1ccc(CC(CC)C(=O)O)cc1 (racemic)              pEC50     5.32

Which pEC50 value is on record for O=C(O)COc1ccc(CCc2ccc(N3C(=O)c4ccccc4C3=O)cc2)cc1 ?
4.21
